STUDY SYSTEM: recombinant soluble homotrimeric HA of A/common magpie/Hong Kong/5052/07 (H5N1) (Influenza A virus A/common magpie/Hong Kong/5052/2007 (H5N1))
PROCEDURE SUMMARY: HA microarray, BCC supernatant
COND: remark: other sources report otherwise
The following binders are shown together with reported Trimeric HA Binding RLU values.
Use RLU as the unit, but write only the number.

Example results:
| BINDER | MEASUREMENT UNIT | READOUT NUMBER |
| --- | --- | --- |
| TCN-537 (3194_D21) (antibody, V domains shown) VH: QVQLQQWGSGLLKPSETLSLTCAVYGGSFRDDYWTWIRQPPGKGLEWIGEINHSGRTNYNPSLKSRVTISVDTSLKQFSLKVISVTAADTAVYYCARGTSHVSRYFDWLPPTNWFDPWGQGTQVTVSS VL: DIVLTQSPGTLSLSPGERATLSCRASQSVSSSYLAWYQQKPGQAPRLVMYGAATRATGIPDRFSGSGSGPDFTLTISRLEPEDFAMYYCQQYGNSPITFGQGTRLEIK | RLU | 18700 |
| TCN-538 (3206_O17) (antibody, V domains shown) VH: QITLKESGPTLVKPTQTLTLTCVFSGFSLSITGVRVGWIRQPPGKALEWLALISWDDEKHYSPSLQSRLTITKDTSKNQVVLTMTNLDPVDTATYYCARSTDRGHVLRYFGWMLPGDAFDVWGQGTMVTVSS VL: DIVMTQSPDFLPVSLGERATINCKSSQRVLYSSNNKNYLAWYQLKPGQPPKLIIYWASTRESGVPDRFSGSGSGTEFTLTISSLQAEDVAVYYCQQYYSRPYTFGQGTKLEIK | RLU | 18700 |

Ask: Quick one: give measured Trimeric HA Binding RLU for TCN-555 (5246_L16) (antibody, V domains shown) VH: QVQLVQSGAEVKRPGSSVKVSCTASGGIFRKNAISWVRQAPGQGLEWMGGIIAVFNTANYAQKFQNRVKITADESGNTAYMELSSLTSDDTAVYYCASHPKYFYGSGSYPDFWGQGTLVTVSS VL: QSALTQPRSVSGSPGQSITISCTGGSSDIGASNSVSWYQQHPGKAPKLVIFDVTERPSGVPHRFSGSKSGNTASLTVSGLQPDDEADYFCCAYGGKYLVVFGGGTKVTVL
Result: 16100
